SYSTEM: UniProt:P35372
Sequence (P35372 whole entry): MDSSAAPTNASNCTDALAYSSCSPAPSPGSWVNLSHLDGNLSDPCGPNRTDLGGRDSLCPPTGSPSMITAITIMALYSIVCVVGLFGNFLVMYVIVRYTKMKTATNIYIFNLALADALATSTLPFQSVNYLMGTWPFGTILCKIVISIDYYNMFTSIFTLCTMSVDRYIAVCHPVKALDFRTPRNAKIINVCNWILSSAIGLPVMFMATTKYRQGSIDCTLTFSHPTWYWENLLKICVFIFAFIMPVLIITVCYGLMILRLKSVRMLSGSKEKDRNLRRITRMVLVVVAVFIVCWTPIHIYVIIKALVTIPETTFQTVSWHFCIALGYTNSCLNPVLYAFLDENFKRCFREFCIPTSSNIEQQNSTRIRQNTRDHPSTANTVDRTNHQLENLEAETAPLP
ASSAY_COMMENT: Radioligand binding assay, MOR affinity
DETAILS: read-out: MOR Ki (nM ± SEM)
Non-standard residues stand in square brackets, D forms with d. Residues, ends and D or L forms follow the SMILES beside them. 2Pal = N[C@@H](Cc1ccccn1)C(=O)O; 3Pal = N[C@@H](Cc1cccnc1)C(=O)O; 4Pal = N[C@@H](Cc1ccncc1)C(=O)O
Ki values for the molecules below.
METRIC_NAME: Ki (nM)

{"MOLECULE": "O=C1N[C@H](Cc2ccccc2)C(=O)N[C@@H](Cc2ccccc2)C(=O)N2CCC[C@@H]2C(=O)N[C@H]1Cc1ccccc1 [JVA-3620] (cyclo(F[dP]F[dF]))", "VAL": 1100}
{"MOLECULE": "O=C1N[C@H](Cc2c[nH]c3ccccc23)C(=O)N[C@@H](Cc2ccccc2)C(=O)N2CCC[C@@H]2C(=O)N[C@H]1Cc1cccnc1 [JVA-3624] (cyclo(F[dP][3Pal][dW]))", "VAL": 191}
{"MOLECULE": "O=C1N[C@H](Cc2c[nH]c3ccccc23)C(=O)N[C@@H](Cc2ccccc2)C(=O)N2CCC[C@@H]2C(=O)N[C@H]1Cc1ccccn1 [JVA-3626] (cyclo(F[dP][2Pal][dW]))", "VAL": 1610}
{"MOLECULE": "O=C1N[C@H](Cc2c[nH]c3ccccc23)C(=O)N[C@@H](Cc2ccccc2)C(=O)N2CCC[C@@H]2C(=O)N[C@H]1Cc1ccncc1 [JVA-3625] (cyclo(F[dP][4Pal][dW]))", "VAL": 371}
{"MOLECULE": "O=C1N[C@H](Cc2c[nH]c3ccccc23)C(=O)N[C@@H](Cc2ccccn2)C(=O)N2CCC[C@@H]2C(=O)N[C@H]1Cc1ccccc1 [JVA-3627] (cyclo([2Pal][dP]F[dW]))", "VAL": 2530}
{"MOLECULE": "O=C1N[C@H](Cc2c[nH]c3ccccc23)C(=O)N[C@@H](Cc2ccncc2)C(=O)N2CCC[C@@H]2C(=O)N[C@H]1Cc1ccccc1 [JVA-3629] (cyclo([4Pal][dP]F[dW]))", "VAL": 2740}
{"MOLECULE": "O=C1N[C@H](Cc2c[nH]c3ccccc23)C(=O)N[C@@H](Cc2cccnc2)C(=O)N2CCC[C@@H]2C(=O)N[C@H]1Cc1ccccc1 [JVA-3628] (cyclo([3Pal][dP]F[dW]))", "VAL": 988}
{"MOLECULE": "O=C1N[C@H](Cc2c[nH]c3ccccc23)C(=O)N[C@@H](Cc2c[nH]cn2)C(=O)N2CCC[C@@H]2C(=O)N[C@H]1Cc1ccccc1 [JVA-3622] (cyclo(H[dP]F[dW]))", "VAL": 2500}
{"MOLECULE": "O=C1N[C@H](Cc2c[nH]c3ccccc23)C(=O)N[C@@H](Cc2ccccc2)C(=O)N2CCC[C@@H]2C(=O)N[C@H]1Cc1c[nH]cn1 [JVA-3623] (cyclo(F[dP]H[dW]))", "VAL": 366}

###

SYSTEM: KOR (kappa opioid receptor) (Homo sapiens, UniProt P41145)
Sequence (P41145 whole entry): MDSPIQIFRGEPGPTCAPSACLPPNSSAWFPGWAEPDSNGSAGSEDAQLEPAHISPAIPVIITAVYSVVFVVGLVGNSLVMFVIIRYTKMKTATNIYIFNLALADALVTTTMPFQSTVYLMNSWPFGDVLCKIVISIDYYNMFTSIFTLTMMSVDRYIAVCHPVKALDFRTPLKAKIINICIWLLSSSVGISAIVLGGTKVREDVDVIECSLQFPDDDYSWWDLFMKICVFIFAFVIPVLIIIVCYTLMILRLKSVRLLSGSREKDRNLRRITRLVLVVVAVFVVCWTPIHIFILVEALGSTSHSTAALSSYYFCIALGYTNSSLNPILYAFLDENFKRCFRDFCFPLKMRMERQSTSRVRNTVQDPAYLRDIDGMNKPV
ASSAY_COMMENT: Radioligand binding assay, KOR affinity
DETAILS: read-out: KOR Ki (nM ± SEM)
Non-standard residues stand in square brackets, D forms with d. Residues, ends and D or L forms follow the SMILES beside them. 2Pal = N[C@@H](Cc1ccccn1)C(=O)O; 3Pal = N[C@@H](Cc1cccnc1)C(=O)O
METRIC_NAME: Ki (nM)

{"MOLECULE": "O=C1N[C@H](Cc2c[nH]c3ccccc23)C(=O)N[C@@H](Cc2ccccc2)C(=O)N2CCC[C@@H]2C(=O)N[C@H]1Cc1ccccn1 [JVA-3626] (cyclo(F[dP][2Pal][dW]))", "ENDPOINT_UNIT": "nM", "VAL": 82.3}
{"MOLECULE": "O=C1N[C@H](Cc2c[nH]c3ccccc23)C(=O)N[C@@H](Cc2ccccn2)C(=O)N2CCC[C@@H]2C(=O)N[C@H]1Cc1ccccc1 [JVA-3627] (cyclo([2Pal][dP]F[dW]))", "ENDPOINT_UNIT": "nM", "VAL": 58.4}
{"MOLECULE": "O=C1N[C@H](Cc2c[nH]c3ccccc23)C(=O)N[C@@H](Cc2ccccc2)C(=O)N2CCC[C@@H]2C(=O)N[C@H]1Cc1c[nH]cn1 [JVA-3623] (cyclo(F[dP]H[dW]))", "ENDPOINT_UNIT": "nM", "VAL": 67.7}
{"MOLECULE": "O=C1N[C@H](Cc2c[nH]c3ccccc23)C(=O)N[C@@H](Cc2cccnc2)C(=O)N2CCC[C@@H]2C(=O)N[C@H]1Cc1ccccc1 [JVA-3628] (cyclo([3Pal][dP]F[dW]))", "ENDPOINT_UNIT": "nM", "VAL": 41.8}
{"MOLECULE": "O=C1N[C@H](Cc2ccccc2)C(=O)N[C@@H](Cc2ccccc2)C(=O)N2CCC[C@@H]2C(=O)N[C@H]1Cc1ccccc1 [JVA-3620] (cyclo(F[dP]F[dF]))", "ENDPOINT_UNIT": "nM", "VAL": 28.9}
{"MOLECULE": "O=C1N[C@H](Cc2c[nH]c3ccccc23)C(=O)N[C@@H](Cc2c[nH]cn2)C(=O)N2CCC[C@@H]2C(=O)N[C@H]1Cc1ccccc1 [JVA-3622] (cyclo(H[dP]F[dW]))", "ENDPOINT_UNIT": "nM", "VAL": 667}
{"MOLECULE": "O=C1N[C@H](Cc2c[nH]c3ccccc23)C(=O)N[C@@H](Cc2ccccc2)C(=O)N2CCC[C@@H]2C(=O)N[C@H]1Cc1ccccc1 [JVA-2802, cyclo[Phe′-D-Pro-Phe^3-D-Trp^4]] (cyclo(F[dP]F[dW]))", "ENDPOINT_UNIT": "nM", "VAL": 21.8}

###

SYSTEM: KOR (kappa opioid receptor) (Homo sapiens, UniProt P41145)
ASSAY_COMMENT: Radioligand binding assay, KOR affinity
DETAILS: ratio of KOR and MOR Ki
Non-standard residues stand in square brackets, D forms with d. Residues, ends and D or L forms follow the SMILES beside them. 2Pal = N[C@@H](Cc1ccccn1)C(=O)O; 3Pal = N[C@@H](Cc1cccnc1)C(=O)O; 4Pal = N[C@@H](Cc1ccncc1)C(=O)O
METRIC_NAME: Selectivity (KOR/MOR)

{"COMPOUND": "O=C1N[C@H](Cc2c[nH]c3ccccc23)C(=O)N[C@@H](Cc2ccccc2)C(=O)N2CCC[C@@H]2C(=O)N[C@H]1Cc1cccnc1 [JVA-3624] (cyclo(F[dP][3Pal][dW]))", "VAL": "1/23"}
{"COMPOUND": "O=C1N[C@H](Cc2c[nH]c3ccccc23)C(=O)N[C@@H](Cc2cccnc2)C(=O)N2CCC[C@@H]2C(=O)N[C@H]1Cc1ccccc1 [JVA-3628] (cyclo([3Pal][dP]F[dW]))", "VAL": "1/24"}
{"COMPOUND": "O=C1N[C@H](Cc2c[nH]c3ccccc23)C(=O)N[C@@H](Cc2ccccc2)C(=O)N2CCC[C@@H]2C(=O)N[C@H]1Cc1ccccc1 [JVA-2802, cyclo[Phe′-D-Pro-Phe^3-D-Trp^4]] (cyclo(F[dP]F[dW]))", "VAL": "1/12"}
{"COMPOUND": "O=C1N[C@H](Cc2c[nH]c3ccccc23)C(=O)N[C@@H](Cc2ccncc2)C(=O)N2CCC[C@@H]2C(=O)N[C@H]1Cc1ccccc1 [JVA-3629] (cyclo([4Pal][dP]F[dW]))", "VAL": "1/86"}
{"COMPOUND": "O=C1N[C@H](Cc2c[nH]c3ccccc23)C(=O)N[C@@H](Cc2ccccc2)C(=O)N2CCC[C@@H]2C(=O)N[C@H]1Cc1ccccn1 [JVA-3626] (cyclo(F[dP][2Pal][dW]))", "VAL": "1/20"}

###

Ki values for the compounds below.
SYSTEM: KOR (kappa opioid receptor) (Homo sapiens, UniProt P41145)
ASSAY_COMMENT: Radioligand binding assay, KOR affinity
DETAILS: read-out: KOR Ki (nM ± SEM)
Non-standard residues stand in square brackets, D forms with d. Residues, ends and D or L forms follow the SMILES beside them. 3Pal = N[C@@H](Cc1cccnc1)C(=O)O; 4Pal = N[C@@H](Cc1ccncc1)C(=O)O

{"COMPOUND": "O=C1N[C@H](Cc2c[nH]c3ccccc23)C(=O)N[C@@H](Cc2ccncc2)C(=O)N2CCC[C@@H]2C(=O)N[C@H]1Cc1ccccc1 [JVA-3629] (cyclo([4Pal][dP]F[dW]))", "ENDPOINT_UNIT": "nM", "Ki": 32}
{"COMPOUND": "O=C1N[C@H](Cc2c[nH]c3ccccc23)C(=O)N[C@@H](Cc2ccccc2)C(=O)N2CCC[C@@H]2C(=O)N[C@H]1Cc1cccnc1 [JVA-3624] (cyclo(F[dP][3Pal][dW]))", "ENDPOINT_UNIT": "nM", "Ki": 8.34}
{"COMPOUND": "O=C1N[C@H](Cc2c[nH]c3ccccc23)C(=O)N[C@@H](Cc2ccccc2)C(=O)N2CCC[C@@H]2C(=O)N[C@H]1Cc1ccncc1 [JVA-3625] (cyclo(F[dP][4Pal][dW]))", "ENDPOINT_UNIT": "nM", "Ki": 30.7}
